# tgt: α2-adrenoceptors (Rattus norvegicus)
# Construct: isolated rat-brain synaptic membrane fragments
# Sequence (P22909 whole entry, the tested form may be a part): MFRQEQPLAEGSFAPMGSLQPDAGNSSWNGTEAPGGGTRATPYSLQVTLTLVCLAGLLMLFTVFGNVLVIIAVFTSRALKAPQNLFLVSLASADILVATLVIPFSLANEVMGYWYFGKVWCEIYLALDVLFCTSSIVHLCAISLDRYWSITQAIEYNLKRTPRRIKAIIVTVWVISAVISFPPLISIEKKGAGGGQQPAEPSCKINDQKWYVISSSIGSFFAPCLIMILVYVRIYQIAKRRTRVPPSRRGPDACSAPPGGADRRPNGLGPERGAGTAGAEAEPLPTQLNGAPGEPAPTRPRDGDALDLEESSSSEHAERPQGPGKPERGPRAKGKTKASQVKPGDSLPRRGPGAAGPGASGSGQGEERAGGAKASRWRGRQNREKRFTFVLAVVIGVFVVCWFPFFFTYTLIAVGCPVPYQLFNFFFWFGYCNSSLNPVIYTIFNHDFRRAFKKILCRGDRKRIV
# assay: inhibition of [3H]-clonidine binding to isolated rat-brain synaptic membrane fragments
# experimental conditions: from IC50 by Cheng-Prusoff equation
pKi: −log10 of the molar value.

>  <compound>
CN1CCN2c3ccccc3Cc3cccc4c3[C@@H]2[C@H]1C4 (relative stereo)

>  <pKi>
7.06

$$$$
>  <compound>
CN1CCN2c3ccccc3Cc3cccc4c3[C@@H]2[C@H]1CC4 (relative stereo)

>  <pKi>
6.77

$$$$

Entry source: patent US4504480A
